Molecular target: T1, biotin-peptide TDFYCEKNNV (human)
T1 peptide: Biotin-TDFYCEKNNV
Assay: ELISA biotin-peptide; scFv 10 ug/mL; repII
Procedure: The peptides were synthesized naked or with a N-terminal Biotin modification with a purity of >98%. All four scFvs were verified by ELISA that can be detected with anti-His antibodies. ELISA was performed for scFv-peptide binding validation. Briefly, naked peptides were coated (50 μg/mL) in 0.58M carbonate-bicarbonate buffer pH9.5, 100 μL/well, 4° C. […]
Where no end group is shown, it is not given here. The star is where a group is joined. Biotin = O=C1N[C@H]2[C@H](CS[C@H]2CCCCC(=O)*)N1

binder | OD450, OD
Comparative antibody 2 (Comp-2) scFv, 243LO326 (VH SEQ ID NO: 51 and VL SEQ ID NO: 52 of WO 2022/195028 A2), His-tagged (scFv) scFv: QVQLVQSGAEVKKPGASVKVSCKASGYTFTSYWMHWVRQAPGQGLEWIGVIYPGNSDTRYNQKFKGRVTITRDTSASTAYMELSSLRSEDTAVYYCTRDYYSNYVYYYAMDYWGQGTTVTVSSGGGGSGGGGSGGGGSGGGGSDIVMTQTPLSLPVTPGEPASISCRSSQSLVHPNRNTYLHWYLQKPGQSPQLLIYKVSNRFSGVPDRFSGSGSGTDFTLKISRVEAEDVGVYYCSQSTHVPWTFGQGTKLEIKHHHHHH | 0.05
